# Measurement protocol: nonselective antagonists in TAAR1 counter-screen cells, counter-screen for hTAAR1 antagonist project, cell-based, fluorescence, calcium (AID 651780);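 also: CHO-Ga16 host cells stimulated with ATP at an EC80 level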
# Condition parameters: counterscreen cell line, antagonist mode, at 3 µM, hits give high values
Screen size: about 2,400 compounds; about 1,800 (75%) were called active. The set was probably picked from earlier hits. Only a sample is shown.
I would appreciate it if you labelled entries yes when inhibition is 30% or higher, otherwise no.

>  <Molecule>
CSc1ncnc2c1ncn2CC(=O)C1CCC2C3CCC4=CC(=O)CCC4(C)C3CCC12C (centres undefined)

>  <Category>
yes

$$$$
>  <Molecule>
O=C(NCc1ccc2c(c1)OCO2)c1c(-c2ccsc2)sc2ccccc12

>  <Category>
no

$$$$
>  <Molecule>
CC/C(=N/Nc1ccccc1)c1cnnc(SC)n1

>  <Category>
no

$$$$
>  <Molecule>
COc1ccc(OC)c2[nH]c(=O)c(CCNC(=O)C(=O)c3c[nH]c4ccccc34)cc12

>  <Category>
no

$$$$
>  <Molecule>
COc1ccc(C2=NOC(Cn3nc(C(=O)NCc4ccc5c(c4)OCO5)cc3-c3ccccc3)C2)cc1 (centres undefined)

>  <Category>
yes

$$$$
>  <Molecule>
O=S1(=O)c2c(cccc2N2CCCCC2)O[C@H](COCc2ccccc2)CN1C1CC1

>  <Category>
yes

$$$$
>  <Molecule>
CSCCC(NC(=O)COc1ccccc1)C(=O)OCC(=O)c1cc2ccccc2o1 (centres undefined)

>  <Category>
no

$$$$
>  <Molecule>
Cc1ccc(NC(=O)c2ccc(CSc3ncnc4nc[nH]c34)cc2)c(C)c1

>  <Category>
no

$$$$
>  <Molecule>
O=C(NCCN1CCOCC1)c1ccccc1N1C(=O)[C@@H]2Cc3c([nH]c4ccccc34)C(c3cccc(Cl)c3)N2C1=O (some centres undefined)

>  <Category>
no

$$$$
>  <Molecule>
O=C(OCC(=O)N(CCc1ccccc1)Cc1ccccc1)c1ccccc1[N+](=O)[O-]

>  <Category>
yes

$$$$
>  <Molecule>
O=C(N/N=C/c1ccc(Cl)c(Cl)c1)c1ccc2nc[nH]c2c1

>  <Category>
no

$$$$
>  <Molecule>
Cc1nc(N2CCN(c3ccccn3)CC2)c2c(C)c(C(=O)Nc3ccc(F)cc3)sc2n1

>  <Category>
yes

$$$$
